The entries below come with measured cytotoxicity at 10 µM values attached.
Procedure Text: Toxicity liver stage against HepG2, at 10uM
Type: cell-based
Set-up: test concentration 10 uM, cell line HepG2-A16-CD81EGFP
Setup Conditions: human, HepG2-A16-CD81EGFP cells; read-out: INHIBITION
Kindly answer with a numeric value in %, unit omitted.

Example compounds with recorded cytotoxicity at 10 µM:
CC(C)c1nccn1C(C)C(=O)NC1CCOCC1 (centres undefined) : -2.07
CCc1nnc(CN(C)c2nc(C3CCCC3)nc3c2cnn3C)o1 : -11.3
c1cncc(OCc2noc3c2CN(Cc2ccsc2)CC3)c1 : 4.76
CNS(=O)(=O)c1cccc(C(C)NCc2ccco2)c1 (centres undefined) : 4.61
O=C(CCC1CCCN(C(=O)CCc2ccc(F)c(F)c2)C1)NC1CC1 (centres undefined) : 2.49
Cc1cc(C)n(CC2CCCN2C(=O)c2cnc3n[nH]c(C)c3c2)n1 (centres undefined) : -2.61
Cc1ccc2[nH]c(CO[C@H]3CN(C(=O)C4CC4)C[C@H]3F)nc2c1 : -11.6
O=S(=O)(c1cnccc1N1CCN(CCO)CC1)N1CCOCC1 : -8.49
c1ccc(C2CCCN2Cc2nc(-c3cnccn3)no2)nc1 (centres undefined) : -0.5
CC(C)(CNC1CCCN(Cc2ccccn2)C1)CN1CCOCC1 (centres undefined) : 5.91

Query: Returns the measured cytotoxicity at 10 µM for the input compound. Input: Cc1nc(-c2cc(C(=O)N3CCN(C)CC3)c3ccccn23)cn1C
Response: 8.73

Query: Returns the measured cytotoxicity at 10 µM for the input compound. Input: COc1ccc(CCN)cc1-c1ccc(C(N)=O)cc1
Response: 3.23

Query: Returns the measured cytotoxicity at 10 µM for the input compound. Input: CN(Cc1cccs1)C(=O)CN1C(=O)c2cc(Cl)c(Cl)cc2C1=O
Response: -6.13
